Ref: PubChem BioAssay AID330

System: P388 leukemia ip, CD2F1 mice, survival T/C
MEASUREMENT DESCRIPTION: NCI In Vivo Anticancer Drug Screen. Data for tumor model P388 Leukemia (intraperitoneal) in CD2F1 (CDF1) mice
COND: endpoint: median survival time; dose: 50.0 mg/kg/injection; schedule: Q01DX005 (ip); vehicle: Klucel (hydroxypropylcellulose) (HPC); higher = longer survival
Inconclusive results and toxic doses are left out.
METRIC NAME: T/C

MOLECULE: O=C(NCCCl)Oc1ccc(F)cc1
VALUE REPORTED: 100 % of control
--
MOLECULE: FC(F)(F)C1(C(F)(F)F)OS2(F)(F)(OC(C(F)(F)F)(C(F)(F)F)c3ccccc32)c2ccccc21
VALUE REPORTED: 95 % of control
--
MOLECULE: N#CCc1c(-c2ccccc2)c(-c2ccccc2)c2n1CCC2
VALUE REPORTED: 98 % of control
--
MOLECULE: O=c1c2sc3ccccc3c2ncn1/N=C/c1cccc([N+](=O)[O-])c1
VALUE REPORTED: 99 % of control
--
MOLECULE: NC(=O)CCSC(N)=S
VALUE REPORTED: 100 % of control
--
MOLECULE: CC1=CC(=C2C(=O)c3ccccc3C2=O)C=C(C)N1CC#CCN1CCCCC1
VALUE REPORTED: 108 % of control
--
MOLECULE: Cc1c2c(cc3c4ccccc4n(C)c13)C(=O)OC2=O
VALUE REPORTED: 89 % of control
--
MOLECULE: COc1ccc(C2c3cc(OC(C)=O)c(OC)cc3Oc3cc(OC)c(OC(C)=O)cc32)cc1
VALUE REPORTED: 96 % of control
--
MOLECULE: Cc1ccccc1[B-]12OCC[N+]1(CNC(=O)C1=C(O)C3(O)C(=O)C4=C(O)c5c(O)cccc5C(C)(O)C4CC3C(N(C)C)C1=O)CCO2 (stereo not given)
VALUE REPORTED: 110 % of control
--
MOLECULE: Cn1c(C(C)(O)c2cc3c(Cl)nccc3n2C)cc2c(Cl)nccc21
VALUE REPORTED: 103 % of control
--
MOLECULE: CC(=O)/C(C(=N)c1nc(C)c(C(C)=O)c(C(N)=O)n1)=C(\C)O
VALUE REPORTED: 103 % of control
--
MOLECULE: CN1C(=O)C(=O)N(C)C(=O)C1=O
VALUE REPORTED: 100 % of control
--
MOLECULE: Cc1nnc2cc1CCCCCCCCC2
VALUE REPORTED: 108 % of control
--
MOLECULE: CCOC(=O)C1(CC(C)C)CCOC1=O (stereo not given)
VALUE REPORTED: 99 % of control
--
MOLECULE: C=C(C)c1nc(N)nc(Nc2ccccc2)n1
VALUE REPORTED: 103 % of control
